Test system: hT40, dGA, dGAE and truncated tau fragments
Experiment: Binding ELISA / epitope mapping of anti-tau scAbs with truncated tau proteins and 13mer peptides
Design: species or system human
Details: residue numbers of SEQ ID NO: 1 (hT40); CDR Tables 1-11
measured endpoint: Epitope

What does the data say about its Epitope? Entry: S1F4: anti-tau clone, Table 2; SEQ ID NO: 414 (protein, S1F4 amino acid sequence) scFv: QVQLQESGPSLVKPSQTLSLTCTVSGFSLSSNSVGWVRQAPGKAPEWVAGIDTDGEEGYNPALNSRLSITRDTSKSQVSLSLSSVTSEDTAVYYCVRSYRADGLAYGYVQAIDYWGPGLLLTISSEGKSSGASGESKVDDQAVVTQPSSVSGSLGQRVSITCSGSFIGISSVGWFQQLPGSGLRTVIVASDGRPSGVPDRFSNSKSGNTATLTISSLQAEDEADYFCGSSDRTQYTGVFGSGTRLTVLG
367-379

Data credit: patent US20250355001A1
